Sourced from PubChem BioAssay (NCI)

- Test system: NCI/ADR-RES ovarian
- test-method-notes: NCI tumour cell line growth inhibition, 48 h
TGI by entry:

1) O=S(=O)(/N=C(\NO)Nc1ccc(Cl)cc1)c1ccc(-c2ccccn2)s1 : > 100 µM

QUERY: For CC1CN=C(c2ccc(COc3ccc(C4=NCC(C)N4)cc3)cc2)N1 (stereo unspecified) , what is its reported TGI?
RESULT: > 100 µM

QUERY: For CO[C@H](C(=O)O)[C@@H]1Cc2cc3cc(OC4CC(OC5CC(O)C(O)C(C)O5)C(O)C(C)O4)c(C)c(O)c3c(O)c2C(=O)[C@H]1OC1CC(OC2CC(OC3CC(C)(O)C(O)C(C)O3)C(O)C(C)O2)C(O)C(C)O1 (stereo partly specified) , what is its reported TGI?
RESULT: > 32.5 µM

QUERY: For OC(COc1cccc2ccccc12)CN1CCN(c2ccccc2Cl)CC1 (stereo unspecified) , what is its reported TGI?
RESULT: 28.6 µM
